Test: Primary fluorescence-based thiol-reactive (MSTI) qHTS assay for identification of artifact compounds. (AID 1845221); note: nearly all actives have a fitted effect of over 65% in size
Conditions: MSTI thiol-reactivity probe, 1 h; series mostly up to 53.8 µM
Inconclusive results are not listed. Activity calls are given as the source filed them. Calls come from the whole dose curve; as a rule, active = well fitted inhibition curve with a large enough effect; inconclusive = small, poorly fitted or top-dose-only effect; inactive = no such curve, though single readings can be large or run the other way.
Possible outcomes: active, inactive

{"COMPOUND": "CC(=O)OC1(C)CC(O)C2(O)C=COC(OC3OC(CO)C(O)C(O)C3O)C12 (centres undefined)", "ASSIGNED_LABEL": "inactive"}
{"COMPOUND": "O=C(O)CC1CCC(c2ccc(-c3ccc(Nc4ccc(C(F)(F)F)nc4)cn3)cc2)CC1 (centres undefined)", "ASSIGNED_LABEL": "inactive"}
{"COMPOUND": "C[C@]1(C2CCCC2)Cc2cc(OCC(=O)O)c(Cl)c(Cl)c2C1=O", "ASSIGNED_LABEL": "inactive"}
{"COMPOUND": "CC(=O)NC1C(OC2CCC3(C)C(CCC4(C)C3CC=C3C5CC(C)(C)CCC5(C(=O)O)C(O)CC34C)C2(C)C)OC(CO)C(O)C1O (centres undefined)", "ASSIGNED_LABEL": "inactive"}
{"COMPOUND": "COC(=O)C1=CO[C@@H](O[C@@H]2O[C@H](CO)[C@@H](O)[C@H](O)[C@H]2O)[C@H]2[C@@H]1C=C[C@]21C=C([C@H](C)OC(=O)/C=C/c2ccc(O[C@@H]3O[C@H](CO)[C@@H](O)[C@H](O)[C@H]3O)cc2)C(=O)O1", "ASSIGNED_LABEL": "inactive"}
{"COMPOUND": "C=C1CCC2C(C)(C)CCC[C@]2(C)[C@H]1CC/C(C)=C/C(=O)O (some centres undefined)", "ASSIGNED_LABEL": "inactive"}
{"COMPOUND": "O=C(O)CC1(O)C(=O)Nc2ccccc21 (centres undefined)", "ASSIGNED_LABEL": "active"}
{"COMPOUND": "CCOC(=O)C(CCc1ccccc1)NC1CCCN2CCCC(C(=O)O)N2C1=O (centres undefined)", "ASSIGNED_LABEL": "inactive"}
{"COMPOUND": "O=C(Cn1c2ccccc2c2nc3n(c(=O)c21)CCS3)N1CCCC1", "ASSIGNED_LABEL": "inactive"}

* * *

Assay: P-glycoprotein substrates identified in KB-8-5-11 adenocarcinoma cell line, qHTS therapeutic library screen (AID 1346987); note: nearly all actives have a fitted effect of over 65% in size
Conditions: KB-8-5-11 (P-gp overexpressing) viability, CellTiter-Glo, 72 h; series mostly up to 44.5 µM
Inconclusive results are not listed. Active and inactive are the calls of the source. Calls come from the whole dose curve; as a rule, active = well fitted inhibition curve with a large enough effect; inconclusive = small, poorly fitted or top-dose-only effect; inactive = flat fitted curve, though single readings scatter.

{"MOLECULE": "C/C(=C\\CCC(C)(C)O)CCO[C@@H]1O[C@H](CO[C@@H]2O[C@@H](C)[C@H](O)[C@@H](O)[C@H]2O)[C@@H](O)[C@H](O)[C@H]1O", "activity change, negative = cytotoxicity": "inactive"}
{"MOLECULE": "CC1=C2C(=O)C=C(CO)C2C2OC(=O)C(CS(=O)(=O)O)C2C(OC(=O)Cc2ccc(O)cc2)C1 (stereo not given)", "activity change, negative = cytotoxicity": "inactive"}
{"MOLECULE": "C/C=C/C=C/C(O)=C1/C(=O)[C@]2(C)C3/C(=C(O)/C=C/C=C/C)C(=O)C4(C)C1[C@]1(C)O[C@@]4(O)[C@@]3(C)O[C@@]12O", "activity change, negative = cytotoxicity": "inactive"}
{"MOLECULE": "Fc1ccccc1-c1nc2ccn(Cc3ccc(-c4ccc(C(F)(F)F)cc4C(F)(F)F)nn3)cc-2n1", "activity change, negative = cytotoxicity": "inactive"}
{"MOLECULE": "CC(=O)NC1C(OC2CCC3(C)C(CCC4(C)C3CC=C3C5CC(C)(C)CCC5(C(=O)O)C(O)CC34C)C2(C)C)OC(CO)C(O)C1O (stereo not given)", "activity change, negative = cytotoxicity": "inactive"}
{"MOLECULE": "C[C@H]1CC[C@H]2[C@@H](C=C[C@@](C)(O)[C@]2(C)C(=O)CCO)C1", "activity change, negative = cytotoxicity": "inactive"}
{"MOLECULE": "CCOC(=O)C1=C(N)Oc2ccc(Cl)cc2C1C(C#N)C(=O)OCC (stereo not given)", "activity change, negative = cytotoxicity": "inactive"}
{"MOLECULE": "CC(=O)NC(Cc1c[nH]c2ccccc(=O)c12)C(=O)O (stereo not given)", "activity change, negative = cytotoxicity": "inactive"}
{"MOLECULE": "C=C1C2(C)CC3C4(C)OC(C5OC56C4=CC(=O)OC6(C)C)C3(C)C13C(=O)OC(C)C3(O)C2=O (stereo not given)", "activity change, negative = cytotoxicity": "inactive"}
{"MOLECULE": "Cc1occc(=O)c1O[C@@H]1O[C@H](COC(=O)CC(C)(O)CC(=O)O)[C@@H](O)[C@H](O)[C@H]1O (stereo not given in full)", "activity change, negative = cytotoxicity": "inactive"}
{"MOLECULE": "CC(CCc1ccc(O)cc1)O[C@@H]1O[C@H](CO[C@@H]2OC(CO)[C@H](O)[C@H]2O)[C@@H](O)[C@H](O)[C@H]1O (stereo not given in full)", "activity change, negative = cytotoxicity": "inactive"}
{"MOLECULE": "CC(=O)c1ccc(O[C@@H]2O[C@H](CO[C@@H]3OC[C@@H](O)[C@H](O)[C@H]3O)[C@@H](O)[C@H](O)[C@H]2O)cc1", "activity change, negative = cytotoxicity": "inactive"}
{"MOLECULE": "C=C1CCc2occ(C)c2[C@H]2[C@H]1[C@@]13O[C@@]1(C[C@@H](C)[C@H]3OC(C)=O)[C@H]1O[C@@]21C", "activity change, negative = cytotoxicity": "inactive"}
{"MOLECULE": "CC(=O)OC1CC2(C)C(CCC(C)C23Cc2c(O)cc4c(c2O3)CNC4=O)C(C)(C)C1O (stereo not given)", "activity change, negative = cytotoxicity": "inactive"}
{"MOLECULE": "C[C@H]1[C@H](C)CC[C@]2(C(=O)O)CC[C@]3(C(=O)O)C(=CCC4[C@@]5(C)CC[C@H](O[C@@H]6O[C@@H](C)[C@H](O)[C@@H](O)[C@H]6O)C(C)(C)C5CC[C@]43C)[C@H]12 (stereo not given in full)", "activity change, negative = cytotoxicity": "inactive"}
